System Tested: T1, Mad1^CTD K619A (human, UniProt Q9Y6D9 597-718, Substituting Ala for Lys619)
T1 construct: also called Ala for Lys619; source: E. coli Rosetta 2 (DE3), purified (Strep-Tactin, TEV cleavage, Resource Q, Superdex 75); not shown: double Strep, N-terminal, cleaved; His6, N-terminal, cleaved
T1 sequence (looked up): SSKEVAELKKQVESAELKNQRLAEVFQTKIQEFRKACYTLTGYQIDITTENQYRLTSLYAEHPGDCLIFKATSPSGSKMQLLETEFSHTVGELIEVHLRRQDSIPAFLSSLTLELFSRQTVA
Method Notes: ITC; Bub1^CD1 peptide (0.3-1.5 mM) titrated into Mad1 (30-100 µM) in the cell; 20°C; 20 mM HEPES pH 7.5, 100 mM NaCl, 1 mM TCEP; single-site model; stoichiometry counted on dimeric Mad1^CTD
Test Context: both partners purified
Where no end group is shown, it is not given here. [ ]: non-standard residue; d: D form. pT = C[C@@H](OP(=O)(O)O)[C@H](N)C(=O)O; pS = N[C@@H](COP(=O)(O)O)C(=O)O
Outcome Measure: Kd (µM)
Express the result in µM but write the number alone.

## Input Fill blank: measured Kd of the binder KVQP[pS]P[pT]VHTKEALGFIMNMFQAPTS (Bub1 conserved domain 1 (CD1), human, stated as residues 455-479; also called pSer459-pThr461 peptide; source: synthetic peptide (Designer Bioscience UK, 95% purity)) [doubly phosphorylated Bub1^CD1 peptide (pSer459-pThr461)] is ____.
## Output 10
